# IC50 per record follows
# SUBJECT_OF_TEST: recombinant NAAA (Rattus norvegicus (Rat), UniProt Q5KTC7)
# Sequence (Q5KTC7 34-362): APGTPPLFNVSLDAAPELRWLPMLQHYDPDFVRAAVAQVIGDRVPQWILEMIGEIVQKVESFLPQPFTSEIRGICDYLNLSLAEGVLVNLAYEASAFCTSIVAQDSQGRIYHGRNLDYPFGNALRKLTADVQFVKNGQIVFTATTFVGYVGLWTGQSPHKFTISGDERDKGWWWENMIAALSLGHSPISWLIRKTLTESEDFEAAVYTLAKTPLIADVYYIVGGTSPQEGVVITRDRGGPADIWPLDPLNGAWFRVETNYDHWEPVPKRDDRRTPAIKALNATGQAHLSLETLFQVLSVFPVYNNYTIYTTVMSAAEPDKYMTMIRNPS
# ASSAY_PROCEDURE: NAAA assay
# MEASUREMENT_CONTEXT: read-out: IC50 of NAAA inhibition
# Description: Recombinant NAAA or native rat lung NAAA was incubated at 37° C. for 30 min in 0.2 ml of sodium hydrogen phosphate buffer (50 mM, pH 5.0) containing 0.1% Triton X-100, 3 mM dithiothreitol (DTT) and […] heptadecenoylethanolamide as substrate. […] Samples were analyzed by LC/MS (liquid chromatography/mass spectrometry). […] [M-H]-was monitored in SIM mode using heptadecanoic acid as internal standard. […]

[
  {
    "CPD_SMILES": "O=C(CCc1ccccc1)N[C@H]1COC1=O",
    "IC50 [nM]": 420
  },
  {
    "CPD_SMILES": "O=C(N[C@H]1COC1=O)c1ccc(-c2ccccc2)cc1",
    "IC50 [nM]": 115
  }
]
